Assay: activity coefficient (dimensionless); of the first substance listed, at infinite dilution; xn = mol fraction of the nth substance listed
Conditions: 333.2 K; 100 kPa; Liquid; Chromatography; x1 = 0
Label scheme for activity coefficient: lower than 1 is NO, 1 and above is YES.

molecule | class_assignment
c1ccccc1 [benzene] + CCCCCC[n+]1ccccc1.O=S(=O)([N-]S(=O)(=O)C(F)(F)F)C(F)(F)F | NO
CCCCO [butan-1-ol] + CCCCCC[n+]1ccccc1.O=S(=O)([N-]S(=O)(=O)C(F)(F)F)C(F)(F)F | YES
CCO [ethanol] + CCCCCC[n+]1ccccc1.O=S(=O)([N-]S(=O)(=O)C(F)(F)F)C(F)(F)F | YES
C1CCCCC1 [cyclohexane] + CCCCCC[n+]1ccccc1.O=S(=O)([N-]S(=O)(=O)C(F)(F)F)C(F)(F)F | YES
Cc1ccccc1 [toluene] + CCCCCC[n+]1ccccc1.O=S(=O)([N-]S(=O)(=O)C(F)(F)F)C(F)(F)F | NO
CCCO [propan-1-ol] + CCCCCC[n+]1ccccc1.O=S(=O)([N-]S(=O)(=O)C(F)(F)F)C(F)(F)F | YES

* * *

Experiment: activity coefficient (dimensionless); of the first substance listed, at infinite dilution; xn = mol fraction of the nth substance listed
Conditions: 323.2 K; 100 kPa; Liquid; Chromatography; x1 = 0
// values below are reported activity coefficient
measurement_type: activity coefficient

compound | measured_result
CCO [ethanol] + CCCCCC[n+]1ccccc1.O=S(=O)([N-]S(=O)(=O)C(F)(F)F)C(F)(F)F | 1.28
c1ccccc1 [benzene] + CCCCCC[n+]1ccccc1.O=S(=O)([N-]S(=O)(=O)C(F)(F)F)C(F)(F)F | 0.627
CCCCO [butan-1-ol] + CCCCCC[n+]1ccccc1.O=S(=O)([N-]S(=O)(=O)C(F)(F)F)C(F)(F)F | 1.59
Cc1ccccc1 [toluene] + CCCCCC[n+]1ccccc1.O=S(=O)([N-]S(=O)(=O)C(F)(F)F)C(F)(F)F | 0.82
CCCO [propan-1-ol] + CCCCCC[n+]1ccccc1.O=S(=O)([N-]S(=O)(=O)C(F)(F)F)C(F)(F)F | 1.47
C1CCCCC1 [cyclohexane] + CCCCCC[n+]1ccccc1.O=S(=O)([N-]S(=O)(=O)C(F)(F)F)C(F)(F)F | 4.68
